- Tested on: KRas G12C mutant
- measurement-notes: Ras GTP Binding Domain Inhibition Assay (Ras Superfamily Assay)
- recorded-conditions: 20 μM compound, without SOS
Structures can show the parent of a compound that is named as a salt.
observable: KRas G12C mutant: % inh.

Example compounds with recorded KRas G12C mutant: % inh.:
> print(dat)
                                   compound                 result
1  COc1cccc(Nc2nc(-c3nccn3C)nn3ccc(C)c23)n1 [Compound 38]  0 (0 = 0% inhibition)
2  COc1cccc(-c2cn3nc(-c4nccn4C)nc(N[C@@H]4CC[C@@H](OC)C4)c3c2-c2ccccc2)c1F (racemic) [Compound 43]  0 (0 = 0% inhibition)
3  COC1CCCN(c2nc(-c3nccn3C)nn3cc(-c4ccn(C(C)C)n4)c(C)c23)C1 (racemic) [Compound 4]  0 (0 = 0% inhibition)
4  CO[C@H]1CC[C@@H](Nc2nc(-c3nccn3C)nn3cc(-c4ccn(C(C)C)n4)c(-c4ccccc4)c23)C1 (racemic) [Compound 18, hydrochloride]  0 (0 = 0% inhibition)
5  COC1CCCN(c2nc(-c3nccn3C)nn3cc(-c4ccn(C(C)C)n4)c(-c4ccccc4)c23)C1 (racemic) [Compound 21]  0 (0 = 0% inhibition)

[in] Could you tell me which KRas G12C mutant: % inh. is on file for COc1cccc(-c2cn3nc(-c4nccn4C)nc(N[C@@H]4CC[C@@H](OC)C4)c3c2-c2ccccc2)c1Cl.Cl (racemic) [Compound 34] ?
[out] 0 (0 = 0% inhibition)

[in] Would you mind telling me what KRas G12C mutant: % inh. value was observed for COCCO[C@H]1C[C@H](Nc2nc(-c3nccn3C)nn3cc(-c4cccc(OC)c4F)c(-c4ccccc4)c23)C1 [Compound 44] ?
[out] 0 (0 = 0% inhibition)
